- System: 996289-038-R-J1-PDC spheroid viability;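 also: spheroids exposed to compounds for seven days before viability read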
- assay explanation: Anticancer human tumor 996289-038-R-J1-PDC patient-derived colon adenocarcinoma cell line growth inhibition [PI3K]
- test conditions: curve of first compound; second compound 0.00316 µM; spheroids with HUVEC and MSC
pIC50: −log10 of the molar value.
reported endpoint: pIC50

For orientation, consider the following solved cases.
compound	pIC50
Cn1cnc2c(F)c(Nc3ccc(Br)cc3Cl)c(C(=O)NOCCO)cc21 + COc1c(OCCCN2CCOCC2)ccc2c3n(c(=NC(=O)c4cnc(N)nc4)nc12)CCN3	6.83
CC1(C)CCC(Nc2ncc(C(F)(F)F)c(-c3c[nH]c4c(P(C)(C)=O)c(C#N)ccc34)n2)CN1 (stereo not drawn) + COc1c(OCCCN2CCOCC2)ccc2c3n(c(=NC(=O)c4cnc(N)nc4)nc12)CCN3	5.26
CCCS(=O)(=O)Nc1ccc(F)c(C(=O)c2c[nH]c3ncc(-c4ccc(Cl)cc4)cc23)c1F + COc1c(OCCCN2CCOCC2)ccc2c3n(c(=NC(=O)c4cnc(N)nc4)nc12)CCN3	5.22
Cn1nccc1Nc1nccc(-c2ccn(C(CO)c3ccc(Cl)c(F)c3)c(=O)c2)n1 (stereo not drawn) + COc1c(OCCCN2CCOCC2)ccc2c3n(c(=NC(=O)c4cnc(N)nc4)nc12)CCN3	< 5.00

Give me pIC50 for each of these compounds, listed below.
1. C[C@@H](NC(=O)c1ncnc(N)c1Cl)c1ncc(C(=O)Nc2cc(C(F)(F)F)c(Cl)cn2)s1 + COc1c(OCCCN2CCOCC2)ccc2c3n(c(=NC(=O)c4cnc(N)nc4)nc12)CCN3
2. Cn1ncnc1[C@H]1c2n[nH]c(=O)c3cc(F)cc(c23)N[C@@H]1c1ccc(F)cc1 + CC(Nc1ccc2c(c1)OCCn1cc(N3C(=O)OCC3C(F)F)nc1-2)C(N)=O

["< 5.00", "< 7.00"]
